# Test Target: α-synuclein (Homo sapiens, UniProt P37840)
# Construct: preformed fibrils of recombinant wild-type α-synuclein
# Test Description: fibril ultracentrifugation depletion with LC-MS of unbound compound in the supernatant, dose-response fit (second estimate […] by varying fibril concentration)
Endpoint: Kd (µM)
# output: bare number, implied unit µM

Sample `O=C1NN(c2ccccc2)C(=O)C1=Cc1coc2ccc(Cl)cc2c1=O` ; Kd observed: 6

Numbers sourced from paper PMC10493395.
